Assay: Nuclear factor erythroid 2-related factor 2/antioxidant responsive element (Nrf2/ARE) small molecule agonists: luciferase reporter gene qHTS assay in human keratinocytes (AID 1919969); note: nearly all actives have a fitted effect of over 35% in size
Conditions: KeratinoSens HaCaT ARE-luciferase, luminescence, 24 h; series mostly up to 92.4 µM
Excerpt: National Center for Advancing Translational Sciences [NCATS] Division of Preclinical Innovation [DPI] U.S. Environmental Protection Agency [EPA] National Institutes of Environmental Health Sciences [NIEHS] National Toxicology Program [NTP] […] Oxidative stress has been implicated in the pathogenesis of a variety of diseases ranging from cancer to neurodegeneration. […] The activation of the report gene under culture conditions can be detected by ONE-Glo Luciferase Assay System (Promega, Madison, WI). […]
Inconclusive results are not listed. Active and inactive are the calls of the source. Calls come from the whole dose curve.
Your response should consist of one outcome taken from YES = active, NO = inactive

Please let me know the test result on file for CN1CCN(Cc2cc(-c3ccc4[nH]c(=O)oc4c3)co2)[C@@H](c2ccc(F)cc2)C1 .
YES

Also need c1ccc(CCNc2nc(-c3ccccc3)cs2)cc1 , thanks.
YES

// same read-out, input: C=C[Si](C)(C)O[Si](C)(C)C=C
NO

Then COc1ccc(C(=O)c2ccc(OC)cc2O)c(O)c1 ?
YES

Another compound to check: C=CC(=O)OCC[N+](C)(C)C
NO

Now the compound COc1ccccc1OC(=O)Oc1ccccc1OC
NO

Can you handle CCC(CC)(CC(=O)Nc1cccc(/C=C/c2nc(C3CCC3)cs2)c1)C(=O)O next?
NO

And for CCOC(=O)/C=C/C(=O)O ?
YES

Please do the same for C1CCN2C[C@@H]3C[C@@H](CN4CCCC[C@@H]34)[C@H]2C1 as well.
NO

Also CCN(Cc1c(F)cccc1Cl)c1c([N+](=O)[O-])cc(C(F)(F)F)cc1[N+](=O)[O-] ?
YES

Repeat for the following compound: O=C(O)CCCc1ccccc1
NO

Do the same for Oc1cc(O)c(Cl)cc1Cl please
YES

Next compound up: CNC(=O)c1cc(Oc2ccc(NC(=O)Nc3ccc(Cl)c(C(F)(F)F)c3)cc2)ccn1
NO

Field entry: CCN(O)CC
NO

Another compound: CC(=O)[C@@]1(O)CC[C@H]2[C@@H]3C[C@H](C)C4=CC(=O)CC[C@]4(C)[C@H]3CC[C@@]21C
NO

Let us now turn to CCCCCCCCCCCCCC[n+]1ccccc1
NO

Please do the same for CC(=O)c1c(C)cc(C(C)(C)C)cc1C as well.
NO

Next entry: Nc1cc(Cl)c(O)c(Cl)c1
YES

Please answer likewise for Cc1nccn1CC1CCc2c(c3ccccc3n2C)C1=O (stereo unspecified)
NO

Request: Oc1cc2ccccc2cc1O
NO

Consider next the compound CCCCCCCCCCCCCCCC(=O)OC[C@H](O)[C@H]1OC(=O)C(O)=C1O in the same way.
NO

Could you do the same for CCC(C)c1cc([N+](=O)[O-])cc([N+](=O)[O-])c1OC(=O)OC(C)C (stereo unspecified) , please?
YES

Now consider CC(C)C(O)C(C)(C)CO (stereo unspecified) and answer again.
NO

Field entry: COc1cccc(-c2ccc(/C=C\CN3CCCCCC3)cc2Cl)c1
NO

Likewise for O=c1c(O)c(-c2ccc(O)cc2O)oc2cc(O)cc(O)c12 ?
NO

Do the same for On1nnc2ccccc21 please
NO
